Test system: HCI-023 (organoid from a triple-negative breast cancer xenograft)
Experiment: CTG-3D luminescence at 96 h relative to day-0 seeding control (ratio to day 0); higher = more growth / less cytotoxicity; PDxO 3D drug screen, 96 h, CTG-3D normalised to day-0 seeding control.
Details: 12.5 pM; days in culture: 128
property-measured: CTG-3D luminescence at 96 h
Reply with the value as a number alone.

Fill blank: measured CTG-3D luminescence at 96 h of the compound "CCN(c1cc(C#CCN2CCOCC2)cc(C(=O)NCc2c(C)cc(C)[nH]c2=O)c1C)[C@H]1CC[C@H](N(C)CCOC)CC1" is ____. 1.51

Which CTG-3D luminescence at 96 h reading was recorded for the compound "COc1cc2c(Oc3ccc4[nH]c(C)cc4c3F)ncnc2cc1OCCCN1CCCC1" ? 1.2

I'd like to know its CTG-3D luminescence at 96 h. The compound in question is "NC1(C(=O)N[C@@H](CCO)c2ccc(Cl)cc2)CCN(c2nc[nH]c3nccc2-3)CC1" 1.4

Which CTG-3D luminescence at 96 h is listed for "CC(C)(C(=O)NCC(F)(F)C(F)(F)F)C(=O)N[C@@H]1C(=O)Nc2ccccc2-c2ccccc21" ? 1.61

Ref: the supplement of paper PMC8882468
